These measurements were taken from patent US6136558A.

Target: ErbB-4 receptor-Ig fusion (human) (UniProt Q15303)
Assay: displacement of 125I-HRG-β1 177-244 from ErbB-4-Ig
measuredParameter: EC50
Please provide the amount together with its unit, number first.

Trx-HRG-β1 146-244 K211A fusion (ligand) DDDDKAYVSSESPIRISVSTEGANTSSSTSTSTTGTSHLVKCAEKEKTFCVNGGECFMVKDLSNPSRYLCACPNEFTGDRCQNYVMASFYKHLGIEFMEAEELY : 0.124 µM

Consider the additional binder presented here.
Q: Entry under review: Trx-HRG-β1 146-244 V199A fusion (ligand) DDDDKAYVSSESPIRISVSTEGANTSSSTSTSTTGTSHLVKCAEKEKTFCVNGGECFMAKDLSNPSRYLCKCPNEFTGDRCQNYVMASFYKHLGIEFMEAEELY . Reported EC50?
Ans: 0.246 µM
